Target: Prostaglandin D2 receptor 2 (Homo sapiens, UniProt Q9Y5Y4)
Sequence (Q9Y5Y4 whole entry): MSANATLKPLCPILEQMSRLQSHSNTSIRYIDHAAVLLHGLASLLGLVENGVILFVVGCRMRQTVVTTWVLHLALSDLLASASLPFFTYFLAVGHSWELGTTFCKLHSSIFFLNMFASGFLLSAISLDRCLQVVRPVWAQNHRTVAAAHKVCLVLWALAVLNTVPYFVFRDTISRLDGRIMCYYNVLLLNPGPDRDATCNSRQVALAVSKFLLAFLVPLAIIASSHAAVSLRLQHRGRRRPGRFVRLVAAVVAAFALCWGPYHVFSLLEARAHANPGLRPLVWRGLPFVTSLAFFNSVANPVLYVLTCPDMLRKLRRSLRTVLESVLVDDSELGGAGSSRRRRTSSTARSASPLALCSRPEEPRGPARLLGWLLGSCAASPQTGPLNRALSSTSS
Experiment: Displacement of [3H]-PGD2 from CRTh2 receptor by scintillation proximity assay
Each entry below lists one item and its recorded IC50 value.
Please state the value followed by its unit.

Below, 2 compounds whose answers are already recorded.
N#Cc1cccc(-c2cc(Cl)ccc2OCC(=O)O)c1 : 1.7 nM
CCN(CC)S(=O)(=O)c1ccc(-c2cc(C(F)(F)F)ccc2OCC(=O)O)cc1 : 1.3 nM

Alright, here's another compound for you.
(Q) Query: IC50; subject: N#Cc1ccc(-c2cc(C(F)(F)F)ccc2OCC(=O)O)cc1
(A) 126 nM

// provenance: ChEMBL document CHEMBL1777748
